Reference source for all entries: patent US8871753B2

Assign IC50 to each entry below.
Biological target: TYK2 (Homo sapiens)
Sequence (P29597 whole entry): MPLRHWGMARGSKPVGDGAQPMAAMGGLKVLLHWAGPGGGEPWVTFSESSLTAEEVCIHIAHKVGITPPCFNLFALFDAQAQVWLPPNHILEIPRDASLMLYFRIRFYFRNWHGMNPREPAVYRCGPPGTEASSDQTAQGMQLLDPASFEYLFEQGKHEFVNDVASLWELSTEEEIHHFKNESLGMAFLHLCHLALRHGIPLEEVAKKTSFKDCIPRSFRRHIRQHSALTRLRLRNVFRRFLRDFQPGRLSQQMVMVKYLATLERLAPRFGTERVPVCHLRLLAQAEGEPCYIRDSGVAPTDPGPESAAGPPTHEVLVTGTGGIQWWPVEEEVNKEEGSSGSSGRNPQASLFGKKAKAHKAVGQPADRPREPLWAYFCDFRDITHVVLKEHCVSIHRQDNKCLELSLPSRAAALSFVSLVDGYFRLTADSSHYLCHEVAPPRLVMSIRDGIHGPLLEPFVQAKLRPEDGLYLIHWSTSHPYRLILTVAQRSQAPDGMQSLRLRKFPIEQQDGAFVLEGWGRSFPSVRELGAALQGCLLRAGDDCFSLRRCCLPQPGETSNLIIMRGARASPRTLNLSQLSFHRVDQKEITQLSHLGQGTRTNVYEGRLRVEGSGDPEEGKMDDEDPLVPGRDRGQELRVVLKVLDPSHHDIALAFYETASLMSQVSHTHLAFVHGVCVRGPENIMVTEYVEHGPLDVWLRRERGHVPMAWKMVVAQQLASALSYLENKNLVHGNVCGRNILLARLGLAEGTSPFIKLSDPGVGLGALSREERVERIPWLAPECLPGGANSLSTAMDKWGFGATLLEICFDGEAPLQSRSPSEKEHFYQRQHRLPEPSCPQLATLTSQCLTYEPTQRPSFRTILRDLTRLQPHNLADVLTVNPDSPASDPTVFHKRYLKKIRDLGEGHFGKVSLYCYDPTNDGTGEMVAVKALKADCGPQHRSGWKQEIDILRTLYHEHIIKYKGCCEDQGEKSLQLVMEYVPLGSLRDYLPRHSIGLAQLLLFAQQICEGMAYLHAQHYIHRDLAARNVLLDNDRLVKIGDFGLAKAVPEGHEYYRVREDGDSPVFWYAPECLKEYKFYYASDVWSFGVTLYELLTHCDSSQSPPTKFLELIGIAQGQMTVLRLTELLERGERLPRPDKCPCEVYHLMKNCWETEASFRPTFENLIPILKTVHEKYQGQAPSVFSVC
Assay: TYK2 kinase inhibition (Table A1)
Type: biochemical
Structures can show the parent of a compound that is named as a salt.
Write it as a number; the unit nM goes unstated.

// query Would you kindly share the measured IC50 for Cc1oncc1C(=O)N1CCC(CC(=O)Nc2ccc3cc2CCc2cncc(c2)Nc2ncc(Cl)c(n2)N3)CC1 [Example A131, bis(trifluoroacetate)] ?
// result 45

// query Again, but for Cc1ccc(NC(=O)N2CCC(CC(=O)Nc3ccc4cc3CCc3cncc(c3)Nc3ncc(Cl)c(n3)N4)CC2)cc1 [Example A151, bis(trifluoroacetate)]
// result 3.8

// query Subsequent entry: O=C(CC1CCN(c2nc3ccccc3s2)CC1)Nc1ccc2cc1CCc1cncc(c1)Nc1ncc(Cl)c(n1)N2 [Example A157, tris(trifluoroacetate)]
// result 617

// query And what about the compound COc1ccccc1NC(=O)N1CCC(CC(=O)Nc2ccc3cc2CCc2cncc(c2)Nc2ncc(Cl)c(n2)N3)CC1 [Example A152, bis(trifluoroacetate)] ?
// result 2.4

// query Next entry: O=C(CC1CCN(C(=O)c2cnccn2)CC1)Nc1ccc2cc1CCc1cccc(c1)Nc1ncc(Cl)c(n1)N2 [Example A87, bis(trifluoroacetate)]
// result 12

// query Lookup O=C(CC1CCN(c2ccncc2F)CC1)Nc1ccc2cc1CCc1cncc(c1)Nc1ncc(Cl)c(n1)N2 [Example A243, tris(trifluoroacetate)]
// result 235

// query Same for CCNC(=O)N1CCN(C(=O)COc2ccc3cc2CCc2cccc(c2)Nc2ncc(Cl)c(n2)N3)CC1 [Example A12, trifluoroacetate]
// result 30

// query How about this compound: O=C(CC1CCN(c2nncs2)CC1)Nc1ccc2cc1CCc1cncc(c1)Nc1ncc(Cl)c(n1)N2 [Example A174, tris(trifluoroacetate)]
// result 72

// query Next up: Cc1cc(C(=O)N2CCC(CC(=O)Nc3ccc4cc3CCc3cncc(c3)Nc3ncc(Cl)c(n3)N4)CC2)n[nH]1 [Example A163, bis(trifluoroacetate)]
// result 3

// query Field entry: O=C(CC1CCN(S(=O)(=O)c2ccco2)CC1)Nc1ccc2cc1CCc1cncc(c1)Nc1ncc(Cl)c(n1)N2 [Example A201, bis(trifluoroacetate)]
// result 150

// query Thanks! And O=C(CC1CCN(C(=O)Nc2cccc(F)c2)CC1)Nc1ccc2cc1CCc1cncc(c1)Nc1ncc(Cl)c(n1)N2 [Example A147, bis(trifluoroacetate)] ?
// result 7.4

// query Field entry: Fc1cnc2nc1Nc1cccc(c1)CCc1cc(ccn1)N2 [Example C13]
// result 16

// query Then this compound: O=C(CC1CCN(C(=O)c2ccon2)CC1)Nc1ccc2cc1CCc1cncc(c1)Nc1ncc(Cl)c(n1)N2 [Example A135, bis(trifluoroacetate)]
// result 0.9

// query Also, O=C(CC1CCN(C(=O)c2ccccc2)CC1)Nc1ccc2cc1CCc1cccc(c1)Nc1ncc(Cl)c(n1)N2 [Example A56, trifluoroacetate] please.
// result 10

// query Okay, and CC(=O)N1CCCC(C(=O)Nc2ccc3cc2CCc2cccc(c2)Nc2ncc(Cl)c(n2)N3)C1 (stereo not shown) [Example A47, trifluoroacetate] ?
// result 39

// query Next record, please: Clc1cnc2nc1Nc1cccc(c1)/C=C\c1cncc(c1)N2 [Example C20, bis(trifluoroacetate)]
// result 4.4

// query Request: Fc1cnc2nc1Nc1cccc(c1)CCc1ccnc(c1)N2 [Example C16]
// result 83

// query Same read-out for Cn1cc(CC(=O)Nc2ccc3cc2CCc2cccc(c2)Nc2ncc(Cl)c(n2)N3)c2ccccc21 [Example C37, trifluoroacetate] ?
// result 581

// query Let us now turn to O=C1Cc2cccc(c2)Nc2ncc(Cl)c(n2)Nc2cccc(c2)N1 [Example C10, trifluoroacetate]
// result 60

// query Param item: O=C(Nc1ccc2cc1CCc1cccc(c1)Nc1ncc(Cl)c(n1)N2)C1CCN(C(=O)Nc2ccc(Cl)nc2)CC1 [Example A40, bis(trifluoroacetate)]
// result 18

// query O=C(Cc1nc2ccccc2[nH]1)Nc1ccc2cc1CCc1cccc(c1)Nc1ncc(Cl)c(n1)N2 [Example C44, bis(trifluoroacetate)] ?
// result 478
